Collected percent of parent values appear next to each entry.
B1: monoclonal antibody 4h12 (IgG) [mouse] / P. falciparum CelTOS (3D7, PF3D7_1216600, residue F25-D182) [P. falciparum] (parent complex)
chain 1: QVQLQQSGPELVKPGASVKISCKASGYALSSSWLNWVKQRPGQGLEWIGRIFPGDGDTNYNGKFKGKATLTADKSSSTAYLQLSSLTSVDSAVYFCARGGTVVFDYWGQGTTLTVSSAKTTPPSVYPLAPGSAAQTNSMVTLGCLVKGYFPEPVTVTWNSGSLSSGVHTFPAVLQSDLYTLSSSVTVPSSTWPSETVTCNVAHPASSTKVDKKIVPRD
chain 2: DIVMTQSHKFMSTSVGDRVNITCKASQDVGIAVAWYQQRPGQSPKLLIYWASKRHTGVHDRFTGTGSGTDFTLTISTVQSEDLADYFCQQYSNSLTFGAGTTLELSRADAAPTVSIFPPSSEQLTSGGASVVCFLNNFYPKDINVKWKIDGSERQNGVLNSWTDQDSKDSTYSMSSTLTLTKDEYERHNSYACEATHKTSTSPIVKSFNR
chain 3: FRGNNGHNSSSSLYNGSQFIEQLNNSFTSAFLESQSMNKIGDDLAETISNELVSVLQKNSPTFLESSFDIKSEVKKHAKSMLKELIKVGLPSFENLVAENVKPPKVDPATYGIIVPVLTSLFNKVETAVGAKVSDEIWNYNSPDVSESEESLSDDFFD

- Variants of: B1
- experiment_summary: ELISA; parent: 100; read off a plot
property_measured: percent of parent

INSERT INTO measurements (variant_label, property_measured, measured) VALUES
  ('chain 3 D135A, chain 3 E136A, chain 3 I137A', 'percent of parent', '~98%'),
  ('chain 3 Q35A, chain 3 S36A, chain 3 M37A', 'percent of parent', '~100%'),
  ('chain 3 I70A, chain 3 K71A, chain 3 S72A, chain 3 E73A', 'percent of parent', '~75%'),
  ('chain 3 S67A, chain 3 F68A, chain 3 D69A', 'percent of parent', '~94%'),
  ('chain 3 F63A, chain 3 L64A, chain 3 E65A', 'percent of parent', '~0%'),
  ('chain 3 P108A', 'percent of parent', '~96%'),
  ('chain 3 W138A, chain 3 N139A, chain 3 Y140A', 'percent of parent', '~93%'),
  ('chain 3 S60A, chain 3 P61A, chain 3 T62A', 'percent of parent', '~27%'),
  ('chain 3 G112A, chain 3 I113A, chain 3 I114A', 'percent of parent', '~98%'),
  ('chain 3 Q57A, chain 3 K58A, chain 3 N59A', 'percent of parent', '~1%'),
  ('chain 3 K132A, chain 3 V133A, chain 3 S134A', 'percent of parent', '~99%'),
  ('chain 3 S29A, chain 3 F31A', 'percent of parent', '~92%'),
  ('chain 3 Y14A, chain 3 N15A, chain 3 G16A', 'percent of parent', '~96%'),
  ('chain 3 G16A, chain 3 S17A, chain 3 Q18A', 'percent of parent', '~93%'),
  ('chain 3 V129A, chain 3 G130A', 'percent of parent', '~100%'),
  ('chain 3 L32A, chain 3 E33A, chain 3 S34A', 'percent of parent', '~91%');
